Cited source: patent US6512097

target: T1, c-erbB-2 ECD with a Ser-Gly-His6 C-terminal fusion (UniProt P04626 23-652); test: SPR BIAcore
T1 construct: extracellular domain; Expressed from CHO cells, IMAC purified; coupled to a CM5 chip, coated on plates, or biotinylated with NHS-LC-biotin; also called c-erbB-2 extracellular domain; biotinylated c-erbB-2 ECD
Please go through the items and note down their kon.
Answers are plain numbers, in M⁻¹ s⁻¹.

Reference set, count: 5
>>> endpoint_result("C6.5N100dA (scFv, C6.5 VH CDR3 scan mutant; Kabat numbering) scFv: QVQLLQSGAELKKPGESLKISCKGSGYSFTSYWIAWVRQMPGKGLEYMGLIYPGDSDTKYSPSFQGQVTISVDKSVSTAYLQWSSLKPSDSAVYFCARHDVGYCSSSACAKWPEYFQHWGQGTLVTVSSGGGGSGGGGSGGGGSQSVLTQPPSVSAAPGQKVTISCSGSSSNIGNNYVSWYQQLPGTAPKLLIYGHTNRPAGVPDRFSGSKSGTSASLAISGFRSEDEADYYCAAWDDSLSGWVFGGGTKLTVLG")
410000
>>> endpoint_result("C6.5K100gA (scFv, C6.5 VH CDR3 scan mutant; Kabat numbering) scFv: QVQLLQSGAELKKPGESLKISCKGSGYSFTSYWIAWVRQMPGKGLEYMGLIYPGDSDTKYSPSFQGQVTISVDKSVSTAYLQWSSLKPSDSAVYFCARHDVGYCSSSNCAAWPEYFQHWGQGTLVTVSSGGGGSGGGGSGGGGSQSVLTQPPSVSAAPGQKVTISCSGSSSNIGNNYVSWYQQLPGTAPKLLIYGHTNRPAGVPDRFSGSKSGTSASLAISGFRSEDEADYYCAAWDDSLSGWVFGGGTKLTVLG")
430000
>>> endpoint_result("C6.5C100S/C100eS (scFv, C6.5 VH CDR3 scan mutant; Kabat numbering) scFv: QVQLLQSGAELKKPGESLKISCKGSGYSFTSYWIAWVRQMPGKGLEYMGLIYPGDSDTKYSPSFQGQVTISVDKSVSTAYLQWSSLKPSDSAVYFCARHDVGYSSSSNSAKWPEYFQHWGQGTLVTVSSGGGGSGGGGSGGGGSQSVLTQPPSVSAAPGQKVTISCSGSSSNIGNNYVSWYQQLPGTAPKLLIYGHTNRPAGVPDRFSGSKSGTSASLAISGFRSEDEADYYCAAWDDSLSGWVFGGGTKLTVLG")
500000
>>> endpoint_result("C6.5S100bA (scFv, C6.5 VH CDR3 scan mutant; Kabat numbering) scFv: QVQLLQSGAELKKPGESLKISCKGSGYSFTSYWIAWVRQMPGKGLEYMGLIYPGDSDTKYSPSFQGQVTISVDKSVSTAYLQWSSLKPSDSAVYFCARHDVGYCSASNCAKWPEYFQHWGQGTLVTVSSGGGGSGGGGSGGGGSQSVLTQPPSVSAAPGQKVTISCSGSSSNIGNNYVSWYQQLPGTAPKLLIYGHTNRPAGVPDRFSGSKSGTSASLAISGFRSEDEADYYCAAWDDSLSGWVFGGGTKLTVLG")
340000
>>> endpoint_result("C6.5Q101A (scFv, C6.5 VH CDR3 scan mutant; Kabat numbering) scFv: QVQLLQSGAELKKPGESLKISCKGSGYSFTSYWIAWVRQMPGKGLEYMGLIYPGDSDTKYSPSFQGQVTISVDKSVSTAYLQWSSLKPSDSAVYFCARHDVGYCSSSNCAKWPEYFAHWGQGTLVTVSSGGGGSGGGGSGGGGSQSVLTQPPSVSAAPGQKVTISCSGSSSNIGNNYVSWYQQLPGTAPKLLIYGHTNRPAGVPDRFSGSKSGTSASLAISGFRSEDEADYYCAAWDDSLSGWVFGGGTKLTVLG")
"1.2e+06"

Entry under test: C6.5P100iA (scFv, C6.5 VH CDR3 scan mutant; Kabat numbering) scFv: QVQLLQSGAELKKPGESLKISCKGSGYSFTSYWIAWVRQMPGKGLEYMGLIYPGDSDTKYSPSFQGQVTISVDKSVSTAYLQWSSLKPSDSAVYFCARHDVGYCSSSNCAKWAEYFQHWGQGTLVTVSSGGGGSGGGGSGGGGSQSVLTQPPSVSAAPGQKVTISCSGSSSNIGNNYVSWYQQLPGTAPKLLIYGHTNRPAGVPDRFSGSKSGTSASLAISGFRSEDEADYYCAAWDDSLSGWVFGGGTKLTVLG . Its kon was 1.05e+06
